tested on: Hs578T complex spheroid growth, percent test/control; experiment: Anticancer human tumor Hs578T cell line growth inhibition [AhR]; conditions: second compound 0.316 µM; first compound 0.0316 µM; stronger effect = lower value;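 note: luminescent viability signal as a proxy for spheroid growth; spheroids exposed to agents for one week after three days of growth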
Observation type: viability, T/C

Example entries and their recorded answers appear below.
compound="CC[C@@]1(O)C(=O)OCc2c1cc1n(c2=O)Cc2cc3c(CN(C)C)c(O)ccc3nc2-1 + CC(CO)NC(=O)c1cc(-c2ccc(Cl)cc2)nn(-c2cnn(C)c2)c1=O" data_value=89.6%
compound="COc1ccc([C@@H](O)c2cc(-c3ncnc4cc(N5CCOCC5)ccc34)c(F)cc2Cl)nn1 + Cc1cncc(-c2nc(NCCc3c[nH]c4ccccc34)c3ncn(C(C)C)c3n2)c1" data_value=112%
compound="Nc1ncn(C2CC(O)C(CO)O2)c(=O)n1 (stereo not drawn) + CC(CO)NC(=O)c1cc(-c2ccc(Cl)cc2)nn(-c2cnn(C)c2)c1=O" data_value=110%
compound="COc1cc(C2c3cc4c(cc3C(OC3OC5COC(C)OC5C(O)C3O)C3COC(=O)C23)OCO4)cc(OC)c1O (stereo not drawn) + Cc1cncc(-c2nc(NCCc3c[nH]c4ccccc34)c3ncn(C(C)C)c3n2)c1" data_value=108%
compound="CC(C)c1c(-c2ccccc2)nc2c(C#N)c[nH]n2c1=O + Cc1ccccc1N=Nc1ccc(NC(=O)c2ccnn2C)c(C)c1" data_value=105%

Query block: Give viability, T/C for the following compound: COc1cccc2c1C(=O)c1c(O)c3c(c(O)c1C2=O)CC(O)(C(=O)CO)CC3OC1CC(N)C(O)C(C)O1 (stereo not drawn) + Cc1ccccc1N=Nc1ccc(NC(=O)c2ccnn2C)c(C)c1
Result block: 67.9%

Query block: Give viability, T/C for the following compound: NS(=O)(=O)OCC1CC(n2ccc3c(NC4CCc5ccccc54)ncnc32)CC1O (stereo not drawn) + CC(CO)NC(=O)c1cc(-c2ccc(Cl)cc2)nn(-c2cnn(C)c2)c1=O
Result block: 114%

Query block: Give viability, T/C for the following compound: Nc1ccccc1NC(=O)c1ccc(CNC(=O)OCc2cccnc2)cc1 + Cc1cncc(-c2nc(NCCc3c[nH]c4ccccc34)c3ncn(C(C)C)c3n2)c1
Result block: 126%

Query block: Give viability, T/C for the following compound: Nc1ccn(C2OC(CO)C(O)C2(F)F)c(=O)n1 (stereo not drawn) + Cc1ccccc1N=Nc1ccc(NC(=O)c2ccnn2C)c(C)c1
Result block: 54%

Query block: Give viability, T/C for the following compound: Nc1ccccc1NC(=O)c1ccc(CNC(=O)OCc2cccnc2)cc1 + CC(CO)NC(=O)c1cc(-c2ccc(Cl)cc2)nn(-c2cnn(C)c2)c1=O
Result block: 111%

Query block: Give viability, T/C for the following compound: COc1cc(Nc2ncc3c(n2)-c2ccc(Cl)cc2C(c2c(F)cccc2OC)=NC3)ccc1C(=O)O + CC(CO)NC(=O)c1cc(-c2ccc(Cl)cc2)nn(-c2cnn(C)c2)c1=O
Result block: 94.6%

Query block: Give viability, T/C for the following compound: CC(C)c1c(-c2ccccc2)nc2c(C#N)c[nH]n2c1=O + Cc1cncc(-c2nc(NCCc3c[nH]c4ccccc34)c3ncn(C(C)C)c3n2)c1
Result block: 112%

Query block: Give viability, T/C for the following compound: Nc1ncn(C2CC(O)C(CO)O2)c(=O)n1 (stereo not drawn) + Cc1cncc(-c2nc(NCCc3c[nH]c4ccccc34)c3ncn(C(C)C)c3n2)c1
Result block: 119%
